Origin of values: PubChem BioAssay AID2060483

Test system: K24384-001-R-PDC complex spheroids, viability;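 further: spheroids exposed to compounds for seven days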
assay_comment: Anticancer human tumor K24384-001-R-PDC patient-derived pancreatic adenocarcinoma cell line growth inhibition [GQUAD]
condition: curve of first compound; second compound 0.1 µM
Quick reference: pIC50 of the listed items.
Value format note: pIC50 is -log10 of concentration (mol/L); just state the number.

Example entries and their recorded answers appear below.
[
  {
    "molecule": "CCc1c2c(nc3ccc(O)cc13)-c1cc3c(c(=O)n1C2)COC(=O)[C@]3(O)CC + CN(C)c1ccc(Nc2c3ccc(NC(=O)CCN4CCCC4)cc3nc3cc(NC(=O)CCN4CCCC4)ccc23)cc1",
    "meas_value": 8.05
  },
  {
    "molecule": "CCCS(=O)(=O)Nc1ccc(F)c(C(=O)c2c[nH]c3ncc(-c4ccc(Cl)cc4)cc23)c1F + CN(C)c1ccc(Nc2c3ccc(NC(=O)CCN4CCCC4)cc3nc3cc(NC(=O)CCN4CCCC4)ccc23)cc1",
    "meas_value": 5.00
  },
  {
    "molecule": "O=C(NO)c1cnc(N2CCN(S(=O)(=O)c3ccc4ccccc4c3)CC2)nc1 + CN(C)c1ccc(Nc2c3ccc(NC(=O)CCN4CCCC4)cc3nc3cc(NC(=O)CCN4CCCC4)ccc23)cc1",
    "meas_value": 6.29
  }
]

## Input # input molecule: Nc1ccn(C2OC(CO)C(O)C2(F)F)c(=O)n1 (stereo not given) + Cc1cnc(CNC(=O)c2c(=O)c3ccc(N4CCCN(C)CC4)nc3n3c2sc2ccccc23)cn1 ; wanted: its pIC50
## Output 6.40
